Origin of the recorded values: ChEMBL document CHEMBL1126688

Documented T50 across a set of molecules
test system: Mus musculus; experiment: In vivo duration of action required to prevent death in mice, after i.v. administration of U-46619 (2 mg/kg) at 0.2 mg/kg p.o.; details: po
Readout: T50 (h)

> print(dat)
                                   molecule  unit.spec  value.observed
1  CC(C)(C)NC(=O)c1coc(C2C3CCC(O3)C2Cc2ccccc2CCC(=O)O)n1 (centres undefined)          h             7.4
2  O=C(O)CCc1ccccc1CC1C2CCC(O2)C1c1nc(C(=O)NCCC2CCCCC2)co1 (centres undefined)          h             8.3
3  CNC(=O)c1coc(C2C3CCC(O3)C2Cc2ccccc2CCC(=O)O)n1 (centres undefined)          h             7.5
4  CCCCCCCCCCNC(=O)c1coc(C2C3CCC(O3)C2Cc2ccccc2CCC(=O)O)n1 (centres undefined)          h             4.3
5  O=C(O)CCc1ccccc1CC1C2CCC(O2)C1c1nc(C(=O)NCCc2ccccc2)co1 (centres undefined)          h               4
6  O=C(O)CCc1ccccc1CC1C2CCC(O2)C1c1nc(C(=O)NCCCCc2ccc(Cl)cc2)co1 (centres undefined)          h            18.6
7  O=C(O)CCc1ccccc1CC1C2CCC(O2)C1c1nc(C(=O)NCCc2ccc(Cl)cc2)co1 (centres undefined)          h            22.7
8  O=C(O)CCc1ccccc1CC1C2CCC(O2)C1c1nc(C(=O)NCCCCc2ccccc2)co1 (centres undefined)          h              20
9  C#CCCCCCNC(=O)c1coc(C2C3CCC(O3)C2Cc2ccccc2CCC(=O)O)n1 (centres undefined)          h            11.1
